Hi there, I'd appreciate the recorded apparent KD of MS2 coat protein for every entry that follows.
System: MS2 coat protein
Assay: apparent KD of MS2 coat protein; designed switch direction (-1 OFF switch, 1 ON switch): -1; higher = weaker reporter binding
Conditions: input ligand: FMN 200 uM
Write the answer as a number in nM, unit excluded.

Task: Report apparent KD of MS2 coat protein for GGUCAGAUGGUAGGAUAUUCAUAUCGAGUGACCCUUUCAUAACAUGAGGAUCACCCAUGUCGGUGGGAGAAGGGCCGUACGGCG [salish99_ExNG02_R04_014] (Eterna round: R96, puzzle: Exclusion NG 2) please.
Result: 26.9

Task: Given ACAUGUCAUCGAGGAUAUUGGACACAUGAGGAUCACCCAUGUACUCGGAGGCUCUACCAUGAGUUCGAGAAGGCGAUGUACAUU [Ex NG2 #77] (Eterna round: R96, puzzle: Exclusion NG 2) , state its recorded apparent KD of MS2 coat protein.
Result: 542

Task: Field request: apparent KD of MS2 coat protein | item: UAAUAUAGAGGAUAUACAUGAGGAUCACCCAUGUGAGUCCAUUAUGGGAUGAGAUCGGGUAGAAGGCUACGAAU [Eternabot (L2) Solution 28] (Eterna round: R97, puzzle: Exclusion 3)
Result: 143

Task: I would be grateful if you could share the reported apparent KD of MS2 coat protein for AAUGAUUGACGAGGAUAUUGUGUUAGAUCACGACGAGAAGGCGUCUGUCACAUGAGGAUCACCCAUGUGAGCCUGGUGGAUGGG [Ex NG1 #79] (Eterna round: R96, puzzle: Exclusion NG 1) .
Result: 41.7

Task: Given UACAUGAGGAUCACCCAUGUUUUAUCAUGUGUAAUAAUAAUGUAGGAUAUGUAUUAUUUUAUUUAACAGAAGGACAAUAAUAAA [JMF's solution 2] (Eterna round: R96, puzzle: Exclusion NG 3) , state its recorded apparent KD of MS2 coat protein.
Result: 426

Task: Recorded apparent KD of MS2 coat protein for GUCGUACAUGAGGAUCACCCAUGUGAGGAUAUGAGUGGUGCUGCUAGGUAGUAUAGACUCAGAAGGCGCAUGAU [Malcxlusion 2 - Jieux - Exclusion 1] (Eterna round: R97, puzzle: Exclusion 1) , please?
Result: 250

Task: Param item = CUUGUGUAAGGAUAUAUGAGUCACGGAAAUAAACCGUGAAGAUAGAAGGUACAUGAGGAUCACCCAUGUAAAAC [Mod of Anonveat 5 - Jieux - Exclusion 4] (Eterna round: R97, puzzle: Exclusion 4) ; retrieve measured apparent KD of MS2 coat protein.
Result: 224

Task: # get_value(readout='apparent KD of MS2 coat protein', item= AAAUAGGCAGGAUAUACAUGAGGAUCACCCAUGUAAAUUUUUCGUUUAACUUGAAUGUGUAGAAGGGCCAUAAA [Ex3 #54] (Eterna round: R97, puzzle: Exclusion 3) )
Result: 27.4

Task: What does the data say about its apparent KD of MS2 coat protein? Entry: UAAGGUCGUCAAUACCUAACCACAUGAGGAUCACCCAUGUCUGAGGAUAUGAAGGCGGCCCGCCAUUAGAAGGCAGCAAGGGAA [Ustiarmadi] (Eterna round: R96, puzzle: Exclusion NG 3)
Result: 13.2

Task: Which apparent KD of MS2 coat protein value is on record for CUUCGGCGAGGAUAUUACGAGAACGACAUGAGGAUCACCCAUGUGAUCGAGGUUGCCUCGUAAGAAGGCGCAUAUA [Reederedle] (Eterna round: R97, puzzle: Exclusion 5) ?
Result: 1050

Task: Name the reported apparent KD of MS2 coat protein value associated with the sequence UGUUGUUACGCAGGAUAUUGUCAACAGGCAGUAGGAUAUCCGAAAGGAGAAGGACCGCCAACAGGCGAGAAGGGCGGGUUAACA [pwkr exNG2 2xF7 2xFMN.7] (Eterna round: R96, puzzle: Exclusion NG 2)
Result: 369

Task: // returns reported apparent KD of MS2 coat protein for input UAAUGUGCGAGAGGAUAUCGUGUACAAAGUACACGAGAAGGCUUCACAUGAGGAUCACCCAUGUAUCGAGGUGAAACACCUUGA [Omei Exc(NG)1 Bv3] (Eterna round: R96, puzzle: Exclusion NG 1)
Result: 448

Task: Entry under review: GACUAGAGAGGAUAUAUUUACAGUGUACCUCGGAUGAUCGCACUUGAGGAUCACCCAAGUAGAAGGCUCGAGGG [EX2 #29] (Eterna round: R97, puzzle: Exclusion 2) . Reported apparent KD of MS2 coat protein?
Result: 11

Task: Given the entry AAAACGUGAGCAGGAUAUGCAAUAAGAUCAGGUCUUCACAUGAGGAUCACCCAUGUAUAAGGGACGCAGAAGGGCUGAUAAAAG [Aesedat] (Eterna round: R96, puzzle: Exclusion NG 2) , report its measured apparent KD of MS2 coat protein.
Result: 98.4

Task: Report apparent KD of MS2 coat protein for CUGCUGGAGCGUCGCUUUGGUCGUACAUGAGGAUCACCCAUGUAGGAUAUGGUAAAAUUCGCCUGCUAGAAGGAUAGAGUGGUC [salish99_ExNG3_r04_618] (Eterna round: R96, puzzle: Exclusion NG 3) please.
Result: 142

Task: Any idea what apparent KD of MS2 coat protein was measured for GAAGUUAGAGGAUAUACAUGAGGAUCACCCAUGUAUGAAGUUAACUUUGUAUAUAAAUGUAGAAGGCUAACUUC [-21.1, -19.6 kcal, 36% A] (Eterna round: R97, puzzle: Exclusion 3) ?
Result: 41.6

Task: Field request: apparent KD of MS2 coat protein | item: CCCGGGUUUGUGAGGAUAUCGGGCCCGAAAGGGCCCGAGAAGGCACAUGAGGAUCACCCAUGUAAGGGCCCGGG [-42.9, -40.9 kcal, A 23%, 0-5cbis] (Eterna round: R97, puzzle: Brourd's mod of Exclusion 4)
Result: 29.3

Task: Which value of apparent KD of MS2 coat protein has been reported for UGAUCUAGGCGAGGAUAUACAUGAGGAUCACCCAUGUAAUGGUGACAUGCGUACAUGUCACCUAUGUAGAAGGCGCCUAGAUCU [JL ENG2 3.55] (Eterna round: R96, puzzle: Exclusion NG 2) in the records?
Result: 19.6
